The following compounds are listed with their measured IC50 values.
Tested on: 280 human cancer cell lines
Experiment: OncoPanel cell proliferation assay (10-day)
Format: cell-based
Conditions: Homo sapiens, PC-3, Prostate; read-out: Cell Count IC50
For clarity, give the value followed by its unit.

Looking for the measured IC50 of CC(C)=CCC[C@@H]1C(O)Oc2c(C)cc(O)c3c2[C@H]1CC[C@H]3C (stereo partly drawn) , can you help? 12 µM

CC(C)=CCC[C@H](C)[C@@H]1CC[C@@H](C)c2c1cc(C)c(O)c2O [Compound 4, 7,8-dihydroxyserrulat-14-ene] , same question. 7.71 µM

CC(C)=CCC[C@H](CO)[C@@H]1CC[C@@H](C)c2c1cc(C)c(O)c2O [Compound 1, 7,8,18-trihydroxyserrulat-14-ene] , same question. 3.88 µM

###

The following compounds are listed with their measured pIC50 values.
Tested on: 280 human cancer cell lines
Test: OncoPanel cell proliferation assay (10-day)
Format: cell-based
Settings: Homo sapiens, HPAF-II, Pancreas; read-out: Cell Count IC50
Here pIC50 is given on a logarithmic scale as minus log10 of the concentration in mol/L.

Below: 2 compounds and their reported pIC50.
compound	measured.value
CC(C)=CCC[C@H](C)[C@@H]1CC[C@@H](C)c2c1cc(C)c(O)c2O [Compound 4, 7,8-dihydroxyserrulat-14-ene]	4.90
CC(C)=CCC[C@H](CO)[C@@H]1CC[C@@H](C)c2c1cc(C)c(O)c2O [Compound 1, 7,8,18-trihydroxyserrulat-14-ene]	5.86

Looking for the measured pIC50 of CC(C)=CCC[C@@H]1C(O)Oc2c(C)cc(O)c3c2[C@H]1CC[C@H]3C (stereo partly drawn) [Compound 2, 5,18-epoxyserrulat-14-en-8,18-diol] , can you help? 5.02

###

Biological target: WHSC1(h) (NSD2(h)) (Homo sapiens)
Sequence (O96028 whole entry): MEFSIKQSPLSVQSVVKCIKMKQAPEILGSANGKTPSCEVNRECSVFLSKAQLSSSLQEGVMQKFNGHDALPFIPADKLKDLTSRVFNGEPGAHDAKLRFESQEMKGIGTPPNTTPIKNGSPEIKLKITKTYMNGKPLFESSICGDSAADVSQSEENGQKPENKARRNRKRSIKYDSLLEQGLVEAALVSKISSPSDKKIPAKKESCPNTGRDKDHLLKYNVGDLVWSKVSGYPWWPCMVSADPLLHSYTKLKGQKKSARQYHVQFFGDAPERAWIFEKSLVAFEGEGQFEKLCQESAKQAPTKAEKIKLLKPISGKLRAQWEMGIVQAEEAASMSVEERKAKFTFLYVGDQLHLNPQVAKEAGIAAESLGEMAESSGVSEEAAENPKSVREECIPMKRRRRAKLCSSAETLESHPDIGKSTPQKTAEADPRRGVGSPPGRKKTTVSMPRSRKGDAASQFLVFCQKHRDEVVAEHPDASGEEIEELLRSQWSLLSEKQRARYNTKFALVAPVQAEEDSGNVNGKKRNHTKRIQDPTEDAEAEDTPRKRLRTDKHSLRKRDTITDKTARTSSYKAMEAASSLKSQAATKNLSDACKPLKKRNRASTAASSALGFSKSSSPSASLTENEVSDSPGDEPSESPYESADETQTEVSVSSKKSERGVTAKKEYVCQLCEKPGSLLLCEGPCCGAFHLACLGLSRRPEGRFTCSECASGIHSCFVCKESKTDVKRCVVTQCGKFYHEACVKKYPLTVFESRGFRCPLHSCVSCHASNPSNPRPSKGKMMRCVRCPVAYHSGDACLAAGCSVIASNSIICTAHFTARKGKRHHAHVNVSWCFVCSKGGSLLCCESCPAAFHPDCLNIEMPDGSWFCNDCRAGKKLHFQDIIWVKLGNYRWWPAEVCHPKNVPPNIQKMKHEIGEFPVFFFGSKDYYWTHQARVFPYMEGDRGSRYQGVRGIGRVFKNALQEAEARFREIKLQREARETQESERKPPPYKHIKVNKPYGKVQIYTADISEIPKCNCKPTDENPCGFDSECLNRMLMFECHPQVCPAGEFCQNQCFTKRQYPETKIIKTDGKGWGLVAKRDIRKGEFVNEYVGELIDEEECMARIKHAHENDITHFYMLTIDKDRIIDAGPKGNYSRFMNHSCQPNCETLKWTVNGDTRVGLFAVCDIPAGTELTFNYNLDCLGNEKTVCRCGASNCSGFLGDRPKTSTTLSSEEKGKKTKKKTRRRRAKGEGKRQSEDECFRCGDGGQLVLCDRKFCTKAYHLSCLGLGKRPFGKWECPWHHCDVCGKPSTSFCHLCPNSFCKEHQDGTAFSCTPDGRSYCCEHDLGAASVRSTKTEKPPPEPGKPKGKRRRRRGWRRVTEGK
test.readout: pIC50
Here pIC50 is given on a logarithmic scale as minus log10 of the concentration in mol/L.

Looking for the measured pIC50 of CN1C(=O)[C@@]23C[C@]4([C@]56C[C@@]78SS[C@@](CO)(C(=O)N7[C@H]5Nc5ccccc56)N(C)C8=O)c5ccccc5N[C@@H]4N2C(=O)[C@]1(CO)SS3 [chaetocin, reference compound] , can you help? 6.32

###

Test system: 280 human cancer cell lines
Test: OncoPanel cell proliferation assay (10-day)
Type: cell-based
Conditions: Homo sapiens, A498, A498, Kidney; read-out: Cell Count IC50
test.readout: pIC50
Here pIC50 is given on a logarithmic scale as minus log10 of the concentration in mol/L.

> print(dat)
                                   molecule  measured.value
1  CC(C)=CCC[C@@H]1C(O)Oc2c(C)cc(O)c3c2[C@H]1CC[C@H]3C (stereo partly drawn)            4.88

Looking for the measured pIC50 of CC(C)=CCC[C@H](C)[C@@H]1CC[C@@H](C)c2c1cc(C)c(O)c2O [Compound 4, 7,8-dihydroxyserrulat-14-ene] , can you help? 4.91

CC(C)=CCC[C@H](CO)[C@@H]1CC[C@@H](C)c2c1cc(C)c(O)c2O [Compound 1, 7,8,18-trihydroxyserrulat-14-ene] , same question. 5.89

###

System: 280 human cancer cell lines
Assay: OncoPanel cell proliferation assay (10-day)
Type: cell-based
Conditions: Homo sapiens, BC-1, Lymphoma; read-out: Cell Count IC50
test.readout: IC50 (µM)
Write it as a number; the unit µM goes unstated.

Below: 2 compounds and their reported IC50.
compound	unit.spec	measured.value
CC(C)=CCC[C@H](CO)[C@@H]1CC[C@@H](C)c2c1cc(C)c(O)c2O [Compound 1, 7,8,18-trihydroxyserrulat-14-ene]	µM	1.52
CC(C)=CCC[C@H](C)[C@@H]1CC[C@@H](C)c2c1cc(C)c(O)c2O [Compound 4, 7,8-dihydroxyserrulat-14-ene]	µM	4.16

Looking for the measured IC50 of CC(C)=CCC[C@@H]1C(O)Oc2c(C)cc(O)c3c2[C@H]1CC[C@H]3C (stereo partly drawn) [Compound 2, 5,18-epoxyserrulat-14-en-8,18-diol] , can you help? 7.95
